Reported protein stability index values are given for each entry in this list.
B1: FLOT1 (parent)
chain: QMAKKAEAFQLYQEAAQLDMLLEK

variants of: B1; assay: protein stability index of a GFP-peptide fusion (GPS, HEK-293T) (PSI 1-6); higher = more stable; conditions: c terminus: a fixed tail appended;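 note: lentivirally expressed fusions sorted by FACS into six bins by GFP to DsRed ratio, PSI derived from sequencing read proportions per bin multiplied by bin number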
reportedProperty: protein stability index

1. Q17E: 1.89
2. A8S: 1.49
3. K24N: 2.83
4. M20V: 2.38
5. L18K: 2.9
6. A8W: 1.91
7. K24M: 2.23
8. Q17R: 2.46
9. Q10P: 2.08
10. L22F: 2.23
11. E7V: 1.91
12. A15T: 2.76
13. E23V: 1.98
14. F9P: 2.08
15. K5S: 1.22
16. L21Q: 1.75
17. Q1N: 1.8
18. Q17C: 1.71
19. Y12T: 4.17
20. L18I: 2.17
21. M20P: 4.52
22. L11D: 1.82
23. A3I: 1.88
24. Q1V: 2.23
25. D19M: 2.85
26. L21G: 4.02
27. L22D: 2.54
28. L18A: 1.85
29. A15R: 2.92
30. A6D: 1.57
31. E23W: 1.98
32. K4E: 2.56
33. Q10E: 2.49
34. K24S: 3.36
35. Q10M: 1.52
36. A15F: 2.24
37. Y12E: 4.41
38. D19H: 1.8
39. F9I: 1.88
40. A3M: 2.44
41. L11H: 3.32
42. A8T: 1.83
43. Q17D: 3.81
44. A6M: 1.32
45. A15M: 1.24
46. L11I: 2.85
